Source of measurements: paper PMC6299481

# System: E. coli DH10B pBC SK blaPDC-3 G216R
# ASSAY COMMENT: MIC, MH agar dilution (CLSI)
# Type: cell-based
# DETAILS: Escherichia coli, β-lactam alone
REPORTED METRIC: log10 MIC (log10 of the value in µg/mL)
Parameter value (number): base-10 log of MIC in µg/mL.

• CC1(C)S[C@@H]2[C@H](NC(=O)[C@H](N)c3ccccc3)C(=O)N2[C@H]1C(=O)O [Ampicillin] = 3.01
• C[C@@H](O)[C@H]1C(=O)N2C(C(=O)O)=C(SCCN=CN)C[C@H]12 [Imipenem] = -0.30
• CCN1CCN(C(=O)N[C@@H](C(=O)N[C@@H]2C(=O)N3[C@@H]2SC(C)(C)[C@@H]3C(=O)O)c2ccccc2)C(=O)C1=O [Piperacillin] = 1.20
• CC(C)(O/N=C(\C(=O)N[C@@H]1C(=O)N2C(C(=O)[O-])=C(C[n+]3ccccc3)CS[C@H]12)c1csc(N)n1)C(=O)O [Ceftazidime] = 1.51
• CO/N=C(\C(=O)N[C@@H]1C(=O)N2C(C(=O)O)=C(COC(C)=O)CS[C@H]12)c1csc(N)n1 [Cefotaxime] = 1.20

Provide reported log10 MIC for each item, in the same order as listed.
1. C[C@H]1[C@H](NC(=O)/C(=N\OC(C)(C)C(=O)O)c2csc(N)n2)C(=O)N1S(=O)(=O)O [Aztreonam]
2. Cn1c(N)c(NC(=O)NCCN)c[n+]1CC1=C(C(=O)O)N2C(=O)[C@@H](NC(=O)/C(=N\OC(C)(C)C(=O)[O-])c3nsc(N)n3)[C@H]2SC1 [Ceftolozane]
3. CO/N=C(\C(=O)N[C@@H]1C(=O)N2C(C(=O)[O-])=C(C[N+]3(C)CCCC3)CS[C@H]12)c1csc(N)n1 [Cefepime]

[1.20, 0.90, -0.60]
